These measurements were taken from patent US20180230200A1.

- Target or test system: gH of HCMV strain TR (human cytomegalovirus strain TR)
- Protocol notes: cell-based or functional assay
Measured quantity: IC50, neutralization of TR infection of HUVEC (ng/mL)
Express the result in ng/mL but write the number alone.

stdin: Recorded IC50, neutralization of TR infection of HUVEC of 62-100 (antibody, V domains shown, also called NAb 62-100) VH: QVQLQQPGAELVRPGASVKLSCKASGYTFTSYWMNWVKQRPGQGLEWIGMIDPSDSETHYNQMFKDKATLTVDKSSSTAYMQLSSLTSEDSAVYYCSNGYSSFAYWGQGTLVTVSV VL: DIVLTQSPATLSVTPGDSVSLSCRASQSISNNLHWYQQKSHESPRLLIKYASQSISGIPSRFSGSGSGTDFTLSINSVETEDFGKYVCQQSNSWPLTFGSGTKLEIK , please.
stdout: 1030
